assay: total protein half-life in vivo (active degradation + dilution); higher = more stable protein; conditions: E. coli NCM3722 delta-smpB; growth: N-lim chemostat; doubling time 6 h
Please enter MET where total protein half-life in vivo is greater than or equal to 5 h, and NOT MET where it is lower.

>  <residues>
MSEMIYGIHAVQALLERAPERFQEVFILKGREDKRLLPLIHALESQGVVIQLANRQYLDEKSDGAVHQGIIARVKPGRQYQENDLPDLIASLDQPFLLILDGVTDPHNLGACLRSADAAGVHAVIVPKDRSAQLNATAKKVACGAAESVPLIRVTNLARTMRMLQEENIWIVGTAGEADHTLYQSKMTGRLALVMGAEGEGMRRLTREHCDELISIPMAGSVSSLNVSVATGICLFEAVRQRS

>  <category>
NOT MET

$$$$
>  <residues>
MSQPLNADQELVSDVVACQLVIKQILDVLDVIAPVEVREKMSSQLKNIDFTNHPAAADPVTMRAIQKAIALIELKFTPQGESH [P0AD10]

>  <category>
NOT MET

$$$$
>  <residues>
MNKHTEHDTREHLLATGEQLCLQRGFTGMGLSELLKTAEVPKGSFYHYFRSKEAFGVAMLERHYAAYHQRLTELLQSGEGNYRDRILAYYQQTLNQFCQHGTISGCLTVKLSAEVCDLSEDMRSAMDKGARGVIALLSQALENGRENHCLTFCGEPLQQAQVLYALWLGANLQAKISRSFEPLENALAHVKNIIATPAV

>  <category>
NOT MET

$$$$
>  <residues>
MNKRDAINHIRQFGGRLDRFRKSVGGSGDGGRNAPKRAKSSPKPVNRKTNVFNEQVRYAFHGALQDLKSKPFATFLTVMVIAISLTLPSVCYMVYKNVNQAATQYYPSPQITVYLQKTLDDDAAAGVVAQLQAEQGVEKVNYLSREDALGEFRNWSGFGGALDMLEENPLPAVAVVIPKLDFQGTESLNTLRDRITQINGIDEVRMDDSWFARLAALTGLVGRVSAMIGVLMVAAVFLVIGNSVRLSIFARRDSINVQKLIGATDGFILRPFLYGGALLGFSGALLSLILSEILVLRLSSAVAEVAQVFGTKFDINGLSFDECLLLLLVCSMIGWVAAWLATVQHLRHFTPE [P0AC30]

>  <category>
MET

$$$$
>  <residues>
MRSKYIVIEGLEGAGKTTARNVVVETLEQLGIRDMVFTREPGGTQLAEKLRSLVLDIKSVGDEVITDKAEVLMFYAARVQLVETVIKPALANGTWVIGDRHDLSTQAYQGGGRGIDQHMLATLRDAVLGDFRPDLTLYLDVTPEVGLKRARARGELDRIEQESFDFFNRTRARYLELAAQDKSIHTIDATQPLEAVMDAIRTTVTHWVKELDA [P0A720]

>  <category>
NOT MET

$$$$

[ask] For this sequence, is measured total protein half-life in vivo 5 h or higher? MSNTPIELKGSSFTLSVVHLHEAEPKVIHQALEDKIAQAPAFLKHAPVVLNVSALEDPVNWSAMHKAVSATGLRVIGVSGCKDAQLKAEIEKMGLPILTEGKEKAPRPAPTPQAPAQNTTPVTKTRLIDTPVRSGQRIYAPQCDLIVTSHVSAGAELIADGNIHVYGMMRGRALAGASGDRETQIFCTNLMAELVSIAGEYWLSDQIPAEFYGKAARLQLVENALTVQPLN
[reply] NOT MET

[ask] Kindly determine if total protein half-life in vivo recorded for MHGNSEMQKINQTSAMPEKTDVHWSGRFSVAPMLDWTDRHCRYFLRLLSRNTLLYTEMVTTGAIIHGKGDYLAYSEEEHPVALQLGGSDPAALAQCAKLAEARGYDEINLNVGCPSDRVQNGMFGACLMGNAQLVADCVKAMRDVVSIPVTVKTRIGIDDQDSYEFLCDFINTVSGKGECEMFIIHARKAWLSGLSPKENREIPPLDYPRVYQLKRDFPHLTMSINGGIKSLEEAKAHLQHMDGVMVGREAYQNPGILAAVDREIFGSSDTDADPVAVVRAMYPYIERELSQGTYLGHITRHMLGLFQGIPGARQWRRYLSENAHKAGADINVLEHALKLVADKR is above or exactly 5 h.
[reply] NOT MET
